Values from ChEMBL document CHEMBL3045053

Overview of reported pIC50 across a group of compounds:
SYSTEM_NAME: Acetolactate synthase (Nicotiana tabacum, UniProt C0L093)
TEST_DESCRIPTION: Inhibition of wild type Nicotiana tabacum (tobacco) S4-Hra GST-tagged acetolactate synthase mutant expressed in Escherichia coli by modified Westerfeld method
Just so you know, pIC50 here is -log10 of the concentration in molar units; reply with that number alone.

Cc1ccn2nc(S(=O)(=O)Nc3c(F)ccc4cccnc34)nc2n1 : 4.78
Cc1cc(C)n2nc(S(=O)(=O)Nc3c(F)ccc4cccnc34)nc2n1 : 4.83

// moving on: another record for pIC50
Reported pIC50, compound Cc1ccn2nc(S(=O)(=O)Nc3c(F)cccc3F)nc2n1 [FLUMETSULAM] : ____
6.03

###

SYSTEM_NAME: Acetolactate synthase (Nicotiana tabacum, UniProt C0L093)
Sequence (C0L093 whole entry): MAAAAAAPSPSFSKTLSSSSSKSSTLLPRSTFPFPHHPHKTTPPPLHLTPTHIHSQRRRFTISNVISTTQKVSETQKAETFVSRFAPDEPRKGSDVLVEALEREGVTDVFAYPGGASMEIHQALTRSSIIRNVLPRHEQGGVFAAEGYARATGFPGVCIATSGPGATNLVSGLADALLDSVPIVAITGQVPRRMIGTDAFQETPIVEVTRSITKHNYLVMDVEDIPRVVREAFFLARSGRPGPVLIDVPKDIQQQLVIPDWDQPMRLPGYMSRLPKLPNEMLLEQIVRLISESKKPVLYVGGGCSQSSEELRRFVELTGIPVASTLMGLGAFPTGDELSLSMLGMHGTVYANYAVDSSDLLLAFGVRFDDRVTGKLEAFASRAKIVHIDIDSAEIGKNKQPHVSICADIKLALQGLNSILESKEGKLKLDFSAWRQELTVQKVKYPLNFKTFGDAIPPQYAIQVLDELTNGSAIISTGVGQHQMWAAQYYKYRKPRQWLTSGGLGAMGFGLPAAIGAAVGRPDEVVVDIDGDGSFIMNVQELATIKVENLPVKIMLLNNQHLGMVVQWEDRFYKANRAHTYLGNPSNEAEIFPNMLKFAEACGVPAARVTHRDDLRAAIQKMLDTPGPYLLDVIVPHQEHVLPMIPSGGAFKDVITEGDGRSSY
TEST_DESCRIPTION: Inhibition of wild type Nicotiana tabacum (tobacco) GST-tagged acetolactate synthase expressed in Escherichia coli by modified Westerfeld method
MEASUREMENT_TYPE: IC50 (nM)
Number in nM, nothing else.

// below: answered compounds
Cc1ccn2nc(S(=O)(=O)Nc3c(F)cccc3F)nc2n1 [FLUMETSULAM] : 31.6
Cc1ccn2nc(S(=O)(=O)Nc3c(Cl)ccc4cccnc34)nc2n1 : 37.2
Cc1cc(C)n2nc(S(=O)(=O)Nc3cccc4cccnc34)nc2n1 : 32.3
Cc1ccn2nc(S(=O)(=O)Nc3c(Br)ccc4cccnc34)nc2n1 : 19.2
Cc1cc(C)n2nc(S(=O)(=O)Nc3c(Cl)ccc4cccnc34)nc2n1 : 9.4

Record lookup: for Acetolactate synthase (Nicotiana tabacum, UniProt C0L093), what IC50 belongs to Cc1ccn2nc(S(=O)(=O)Nc3c(C#N)ccc4cccnc34)nc2n1 ?
64

Same question for Cc1cc(C)n2nc(S(=O)(=O)Nc3c(F)ccc4cccnc34)nc2n1 please.
7.7

Same question for Cc1cc(C)n2nc(S(=O)(=O)Nc3c(Br)ccc4cccnc34)nc2n1 please.
8.7

Same question for Cc1ccn2nc(S(=O)(=O)Nc3c(F)ccc4cccnc34)nc2n1 please.
17.1

###

SYSTEM_NAME: UniProt:C0L093
Sequence (whole entry): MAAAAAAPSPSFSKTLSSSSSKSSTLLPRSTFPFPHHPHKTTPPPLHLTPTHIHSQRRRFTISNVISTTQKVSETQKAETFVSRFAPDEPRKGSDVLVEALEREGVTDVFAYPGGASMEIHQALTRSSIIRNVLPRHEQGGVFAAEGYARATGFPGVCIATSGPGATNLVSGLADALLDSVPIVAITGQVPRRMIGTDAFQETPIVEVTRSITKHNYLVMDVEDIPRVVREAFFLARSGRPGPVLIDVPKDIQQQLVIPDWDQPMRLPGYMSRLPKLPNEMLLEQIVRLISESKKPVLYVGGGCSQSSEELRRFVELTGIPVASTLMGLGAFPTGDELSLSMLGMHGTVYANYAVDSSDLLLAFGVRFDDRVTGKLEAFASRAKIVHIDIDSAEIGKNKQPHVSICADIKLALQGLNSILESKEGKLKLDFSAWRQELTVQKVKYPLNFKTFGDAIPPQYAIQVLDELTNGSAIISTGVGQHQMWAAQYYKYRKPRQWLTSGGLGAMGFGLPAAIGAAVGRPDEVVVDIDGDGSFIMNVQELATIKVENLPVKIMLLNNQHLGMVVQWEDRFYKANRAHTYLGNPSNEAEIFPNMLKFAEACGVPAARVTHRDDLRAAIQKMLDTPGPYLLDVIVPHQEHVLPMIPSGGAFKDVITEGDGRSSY
TEST_DESCRIPTION: Inhibition of wild type Nicotiana tabacum (tobacco) GST-tagged acetolactate synthase expressed in Escherichia coli at 1 mM by modified Westerfeld method
Calls of active or inactive are those of the source. The calls are words filed in the database; no cut-off is given here.
MEASUREMENT_TYPE: inhibition

// below: answered compounds
Cc1cc(C)n2nc(S(=O)(=O)Nc3cccc4cnccc34)nc2n1 : inactive
Cc1ccn2nc(S(=O)(=O)Nc3nccc4ccccc34)nc2n1 : inactive
Cc1ccn2nc(S(=O)(=O)Nc3cccc4ncccc34)nc2n1 : inactive
Cc1ccn2nc(S(=O)(=O)Nc3cccc4cnccc34)nc2n1 : inactive
Cc1cc(C)n2nc(S(=O)(=O)Nc3cccc4ncccc34)nc2n1 : inactive

// moving on: another record for inhibition
Reported inhibition, compound Cc1cc(C)n2nc(S(=O)(=O)Nc3nccc4ccccc34)nc2n1 : ____
inactive
